# TARGET_UNDER_TEST: Butyrylcholinesterase (Rattus norvegicus, UniProt Q9JKC1)
# Sequence (Q9JKC1 whole entry): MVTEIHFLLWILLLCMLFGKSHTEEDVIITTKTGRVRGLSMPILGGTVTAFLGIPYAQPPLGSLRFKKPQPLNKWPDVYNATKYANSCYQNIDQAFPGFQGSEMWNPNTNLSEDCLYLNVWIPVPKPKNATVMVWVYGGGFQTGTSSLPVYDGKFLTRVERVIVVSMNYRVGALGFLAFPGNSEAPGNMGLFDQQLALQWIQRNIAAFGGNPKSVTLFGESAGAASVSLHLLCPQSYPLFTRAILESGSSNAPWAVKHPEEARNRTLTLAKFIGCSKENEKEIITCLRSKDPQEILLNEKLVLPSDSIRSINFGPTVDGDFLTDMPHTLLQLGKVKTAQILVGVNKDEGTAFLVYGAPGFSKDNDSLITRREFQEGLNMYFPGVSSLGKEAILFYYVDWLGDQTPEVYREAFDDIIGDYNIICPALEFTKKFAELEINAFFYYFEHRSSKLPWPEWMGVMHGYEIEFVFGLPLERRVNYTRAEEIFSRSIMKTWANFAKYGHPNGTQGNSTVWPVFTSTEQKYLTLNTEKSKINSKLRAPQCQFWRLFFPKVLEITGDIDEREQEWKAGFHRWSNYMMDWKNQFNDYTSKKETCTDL
// values below are reported pIC50
Bear in mind: pIC50 is minus log10 of a mol/L concentration; give just that figure.

1) COC(=O)c1ccc2[nH]cc(CCCCN3CCN(c4cccc5nc6c(c(N)c45)CCCC6)CC3)c2c1; 6.39
2) N#Cc1ccc2[nH]cc(C(=O)CCCN3CCN(c4cccc5nc6c(c(N)c45)CCCC6)CC3)c2c1; 6.41
3) Nc1c2c(nc3cccc(N4CCN(CCCCc5c[nH]c6ccccc56)CC4)c13)CCCC2; 6.41
4) N#Cc1ccc2[nH]cc(CCCCN3CCN(c4cccc5c(N)c6c(nc45)CCCC6)CC3)c2c1; 6.51
5) N#Cc1ccc2[nH]cc(C(=O)CCCN3CCN(c4ccc5c(N)c6c(nc5c4)CCCC6)CC3)c2c1; 6.43
6) N#Cc1ccc2[nH]cc(CCCCN3CCN(c4cccc5nc6c(c(N)c45)CCCCC6)CC3)c2c1; 6.64
7) COc1ccc2[nH]cc(CCCCN3CCN(c4cccc5nc6c(c(N)c45)CCCC6)CC3)c2c1; 6.40
8) CC(=O)Nc1c2c(nc3cccc(N4CCN(CCCCc5c[nH]c6ccc(C#N)cc56)CC4)c13)CCCC2; 5.53

Now examine the next entry.
Ask | Please report pIC50 with Butyrylcholinesterase (Rattus norvegicus, UniProt Q9JKC1) for item N#Cc1ccc2[nH]cc(CCN3CCN(c4cccc5nc6c(c(N)c45)CCCC6)CC3)c2c1 .
Reply | 5.95

* * *

# TARGET_UNDER_TEST: Acetylcholinesterase (Rattus norvegicus, UniProt P37136)
# Sequence (P37136 whole entry): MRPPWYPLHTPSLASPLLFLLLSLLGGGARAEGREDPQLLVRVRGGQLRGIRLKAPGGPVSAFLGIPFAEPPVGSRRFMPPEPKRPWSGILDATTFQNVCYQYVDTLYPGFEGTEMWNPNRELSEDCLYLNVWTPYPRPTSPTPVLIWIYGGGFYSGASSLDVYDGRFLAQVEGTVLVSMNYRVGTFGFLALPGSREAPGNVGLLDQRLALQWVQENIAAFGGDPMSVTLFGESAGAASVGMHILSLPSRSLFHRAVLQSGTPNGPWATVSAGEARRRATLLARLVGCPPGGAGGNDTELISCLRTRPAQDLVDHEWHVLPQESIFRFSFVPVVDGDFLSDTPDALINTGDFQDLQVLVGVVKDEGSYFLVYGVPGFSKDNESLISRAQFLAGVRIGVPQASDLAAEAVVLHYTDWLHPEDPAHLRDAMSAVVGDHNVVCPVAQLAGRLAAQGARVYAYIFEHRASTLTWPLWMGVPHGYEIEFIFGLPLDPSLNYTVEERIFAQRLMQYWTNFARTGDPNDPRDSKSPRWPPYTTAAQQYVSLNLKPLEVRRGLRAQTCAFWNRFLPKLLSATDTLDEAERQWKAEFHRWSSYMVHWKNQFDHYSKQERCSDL
# EXPERIMENT_DESCRIPTION: Inhibition of rat cortex AChE using acetylthiocholine iodide as substrate after 20 mins by Ellman's method
# EXPERIMENTAL_CONTEXT: read-out: IC50
Each entry below lists one item and its recorded pIC50 value.
Please keep in mind that pIC50 is minus log10 of the molar concentration; only the number is needed.

Recorded results for 3 compounds are shown here.
1. N#Cc1ccc2[nH]cc(CCCCN3CCN(c4ccc5nc6c(c(N)c5c4)CCCC6)CC3)c2c1; 4.99
2. Cc1ccc2[nH]cc(CCCCN3CCN(c4cccc5nc6c(c(N)c45)CCCC6)CC3)c2c1; 5.95
3. N#Cc1ccc2[nH]cc(C(=O)CCCN3CCN(c4cccc5nc6c(c(N)c45)CCCC6)CC3)c2c1; 5.87

Ask | For the compound CC(=O)Nc1c2c(nc3cccc(N4CCN(CCCCc5c[nH]c6ccc(C#N)cc56)CC4)c13)CCCC2 , give its reported pIC50.
Reply | 5.25

Ask | # return recorded pIC50 for entry COc1ccc2[nH]cc(CCCCN3CCN(c4cccc5nc6c(c(N)c45)CCCC6)CC3)c2c1
Reply | 5.79

* * *

# EXPERIMENT_DESCRIPTION: in vitro
# EXPERIMENTAL_CONTEXT: PAMPA
# Description: Effective permeability of the compound in PBS/ethanol buffer after 12 hrs by PAMPA
Would you please tag the item class 1 when its Papp at 12 h is 40 nm/s or above, and class 0 when it is below?

Consider the following illustrative entries.
1. N#Cc1ccc2[nH]cc(CCCN3CCN(c4cccc5nc6c(c(N)c45)CCCC6)CC3)c2c1; class 1
2. COc1ccc2[nH]cc(CCCCN3CCN(c4cccc5nc6c(c(N)c45)CCCC6)CC3)c2c1; class 1
3. COC(=O)c1ccc2[nH]cc(CCCCN3CCN(c4cccc5nc6c(c(N)c45)CCCC6)CC3)c2c1; class 1
4. N#Cc1ccc2[nH]cc(C(=O)CCCN3CCN(c4cccc5nc6c(c(N)c45)CCCC6)CC3)c2c1; class 0
5. Nc1c2c(nc3cccc(N4CCN(CCCCc5c[nH]c6ccccc56)CC4)c13)CCCC2; class 0

Now take the following molecule into account.
Ask | Could you verify whether the entry N#Cc1ccc2[nH]cc(C(=O)CCCN3CCN(c4cccc5c(N)c6c(nc45)CCCC6)CC3)c2c1 shows Papp at 12 h of no less than 40 nm/s?
Reply | class 0
